Cited source for all entries: ChEMBL document CHEMBL3217491

tested on: MCF7; assay: Growth inhibition of human MCF7 cells after 48 hrs by SRB assay; type: functional; conditions: MCF7, 48 h
In this section, each of the compounds is paired with its reported GI50.
Report only the number, with the unit nM understood.

Molecule: COc1ccc(-c2nc3ncccn3c2/C=C/C(=O)c2cc(OC)c(OC)c(OC)c2)cc1
Property: GI50
Test result: 1140

Let us examine a further case.
**Q:** Give its GI50 value. Item: `COc1ccc(-c2nc3ccccn3c2/C=C/C(=O)c2cc(OC)c(OC)c(OC)c2)cc1OC`
**A:** 2760

----------
assay: Growth inhibition of human Hs578T cells after 48 hrs by SRB assay; type: functional; conditions: Hs-578T
Note to self: use t only for GI50 readings below 2000 nM; a reading exactly at 2000 nM still gets f.

Molecule: COc1ccc(-c2nc3ccccn3c2/C=C/C(=O)c2cc(OC)c(OC)c(OC)c2)cc1OC
Assigned category: t

Molecule: COc1cc(C(=O)/C=C/c2c(C(F)(F)F)nc3ccccn23)cc(OC)c1OC
Assigned category: f

Molecule: COc1ccc(-c2nc3ncccn3c2/C=C/C(=O)c2cc(OC)c(OC)c(OC)c2)cc1
Assigned category: t

Consider the record given below.
**Q:** Hello, I'm reviewing records and need to know if GI50 of `COc1ccc(-c2nc3ccccn3c2/C=C/C(=O)c2cc(OC)c(OC)c(OC)c2)cc1` is below 2000 nM. Could you check?
**A:** f
